Sourced from patent US20120270884A1

Listing of entries alongside the reported pIC50.
Target chain: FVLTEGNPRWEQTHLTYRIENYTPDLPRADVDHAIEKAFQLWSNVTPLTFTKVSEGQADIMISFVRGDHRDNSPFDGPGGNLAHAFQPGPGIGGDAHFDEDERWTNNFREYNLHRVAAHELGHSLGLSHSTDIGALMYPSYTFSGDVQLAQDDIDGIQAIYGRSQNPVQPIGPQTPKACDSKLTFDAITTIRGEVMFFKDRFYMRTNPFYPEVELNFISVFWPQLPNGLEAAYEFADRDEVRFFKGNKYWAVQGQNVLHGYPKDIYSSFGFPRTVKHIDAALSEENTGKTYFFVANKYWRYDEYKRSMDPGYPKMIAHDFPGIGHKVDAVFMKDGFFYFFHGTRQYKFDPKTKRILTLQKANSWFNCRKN
pIC50: −log10 of the molar value.

Fill blank: measured pIC50 of the compound CN(C)c1ccc2ccc(S(=O)(=O)N3CCN(S(=O)(=O)c4cc(F)c(Oc5ccc(Cl)cc5)c(F)c4)[C@@H](C(=O)NO)C3)cc2c1 [Entry 50] is ____. < 4.70

What about COCCN1CCN(S(=O)(=O)c2cc(F)c(Oc3ccc(Cl)cc3)c(F)c2)[C@@H](C(=O)NO)C1 [Entry 29] ? 4.70 to 6.00

----------
UniProtKB P08254: recorded IC50 for assorted compounds
Sequence (P08254 100-477, species assumed): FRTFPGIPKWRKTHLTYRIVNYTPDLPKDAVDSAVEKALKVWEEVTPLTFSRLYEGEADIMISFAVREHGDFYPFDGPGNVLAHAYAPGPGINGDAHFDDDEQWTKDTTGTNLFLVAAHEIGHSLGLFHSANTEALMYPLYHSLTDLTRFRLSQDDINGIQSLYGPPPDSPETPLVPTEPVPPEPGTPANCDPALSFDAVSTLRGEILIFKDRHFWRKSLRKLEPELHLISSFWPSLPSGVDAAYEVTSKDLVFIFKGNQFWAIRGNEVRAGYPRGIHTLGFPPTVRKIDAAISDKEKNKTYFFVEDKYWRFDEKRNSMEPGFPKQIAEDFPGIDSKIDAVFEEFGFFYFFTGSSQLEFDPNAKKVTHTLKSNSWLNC

[
  {
    "compound": "O=C(NO)[C@H]1CN(C(=O)N2CCOCC2)CCN1S(=O)(=O)c1ccc(Oc2ccc(Cl)cc2)c(F)c1 [Entry 6]",
    "IC50": "< 50 nM"
  },
  {
    "compound": "COCCOC(=O)N1CCN(S(=O)(=O)c2ccc(Oc3ccc(C#N)cc3)c(F)c2)[C@@H](C(=O)NO)C1 [Entry 5]",
    "IC50": "50 to 1000 nM"
  },
  {
    "compound": "O=C(NO)[C@H]1CN(S(=O)(=O)CCN2CCCCC2)CCN1S(=O)(=O)c1cc(F)c(Oc2ccc(Cl)cc2)c(F)c1 [Entry 53]",
    "IC50": "50 to 1000 nM"
  },
  {
    "compound": "O=C(NO)[C@H]1CN(C(=O)NCCN2CCCC2)CCN1S(=O)(=O)c1cc(F)c(Oc2ccc(Cl)cc2)c(F)c1 [Entry 17]",
    "IC50": "50 to 1000 nM"
  },
  {
    "compound": "C=CCN1CCN(S(=O)(=O)c2cc(F)c(Oc3ccc(Cl)cc3)c(F)c2)[C@@H](C(=O)NO)C1 [Entry 62]",
    "IC50": "1000 to 20000 nM"
  }
]

Fill blank: measured IC50 of the compound N#Cc1ccc(Oc2ccc(S(=O)(=O)N3CCN(C(=O)N4CCOCC4)C[C@@H]3C(=O)NO)cc2F)cc1 [Entry 7] is ____. < 50 nM

----------
Biological target: UniProt P78536
Sequence (P78536 215-824): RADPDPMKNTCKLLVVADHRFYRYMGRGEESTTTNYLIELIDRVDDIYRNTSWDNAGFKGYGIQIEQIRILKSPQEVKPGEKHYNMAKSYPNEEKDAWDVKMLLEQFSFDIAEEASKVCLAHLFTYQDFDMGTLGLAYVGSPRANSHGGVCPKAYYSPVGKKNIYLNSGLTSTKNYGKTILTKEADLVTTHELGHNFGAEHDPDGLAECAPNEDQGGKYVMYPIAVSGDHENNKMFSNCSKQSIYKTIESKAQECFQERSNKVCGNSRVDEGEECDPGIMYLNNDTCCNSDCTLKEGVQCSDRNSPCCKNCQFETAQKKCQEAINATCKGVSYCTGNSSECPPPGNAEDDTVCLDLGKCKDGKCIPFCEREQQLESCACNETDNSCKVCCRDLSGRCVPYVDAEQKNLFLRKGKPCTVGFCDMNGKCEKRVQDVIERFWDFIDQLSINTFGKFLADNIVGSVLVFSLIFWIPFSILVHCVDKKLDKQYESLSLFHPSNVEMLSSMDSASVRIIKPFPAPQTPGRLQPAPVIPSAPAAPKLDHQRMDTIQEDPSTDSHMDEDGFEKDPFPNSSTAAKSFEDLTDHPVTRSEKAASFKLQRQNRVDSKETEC
assayReadout: IC50

Field: example entries. Status: answers known.
[
  {
    "compound": "CN(C)CCS(=O)(=O)N1CCN(S(=O)(=O)c2cc(F)c(Oc3ccc(Cl)cc3)c(F)c2)[C@@H](C(=O)NO)C1",
    "assaySystem": "UniProt P78536",
    "IC50": "< 50 nM"
  },
  {
    "compound": "O=C(NO)[C@H]1CN(C(=O)N2CCOCC2)CCN1S(=O)(=O)c1cc(F)c(Oc2ccc(Cl)cc2)c(F)c1",
    "assaySystem": "UniProt P78536",
    "IC50": "50 to 1000 nM"
  },
  {
    "compound": "O=C(NO)[C@H]1CN(S(=O)(=O)NC(=O)N2CCOCC2)CCN1S(=O)(=O)c1cc(F)c(Oc2ccc(Cl)cc2)c(F)c1",
    "assaySystem": "UniProt P78536",
    "IC50": "50 to 1000 nM"
  },
  {
    "compound": "O=C(NO)[C@H]1CN(S(=O)(=O)c2cccnc2O)CCN1S(=O)(=O)c1cc(F)c(Oc2ccc(Cl)cc2)c(F)c1",
    "assaySystem": "UniProt P78536",
    "IC50": "50 to 1000 nM"
  }
]

Note: attention shifts to another entry.
Fill blank: measured IC50 of the compound `O=C(NO)[C@H]1CN(C(=O)c2cccnc2)CCN1S(=O)(=O)c1cc(F)c(Oc2ccc(Cl)cc2)c(F)c1` is ____. 50 to 1000 nM
